Listed below: drug sensitivity score values for each entry.
Test system: MDA-MB-468
method_notes: drug sensitivity score (DSS), CellTiter-Glo (DSS (AUC-based score)); higher = stronger drug effect (viability inhibition or cytotoxicity); extreme values may be limits of the assay
measurement_conditions: incubation time: 72 h
// print number alone

# input Endpoint output: drug sensitivity score of `CC[C@H](CO)Nc1nc(NCc2ccccc2)c2ncn(C(C)C)c2n1` . Value?
# output 0

# input Endpoint output: drug sensitivity score of `CCNC(=O)CCC/C=C\C[C@@H]1[C@@H](/C=C/[C@@H](O)CCc2ccccc2)[C@H](O)C[C@@H]1O` . Value?
# output 0

# input Endpoint output: drug sensitivity score of `Cn1cc(C2=C(c3cn(C4CCN(Cc5ccccn5)CC4)c4ccccc34)C(=O)NC2=O)c2ccccc21` . Value?
# output 0

# input Endpoint output: drug sensitivity score of `Nc1ccn([C@@H]2O[C@H](CO)[C@@H](O)C2(F)F)c(=O)n1` . Value?
# output 19.7

# input Endpoint output: drug sensitivity score of CCN(CC)CCCC(C)Nc1ccnc2cc(Cl)ccc12 (centres undefined) . Value?
# output 10.8

* * *

Tested on: HCC1599
method_notes: normalised response (% of control), CellTox Green; higher = less cell death (100 = DMSO, 0 = benzethonium chloride kill control)
measurement_conditions: incubation time: 72 h
property_label: normalised response (%)
Express the result in % but write the number alone.

Below, 5 compounds whose answers are already recorded.
{"compound": "COc1ccc(S(=O)(=O)Nc2cccnc2Nc2ccc(O)cc2)cc1 [ABT-751] (1000 nM)", "target_entity": "HCC1599", "normalised response [%]": 87.8}
{"compound": "CN[C@@H](C)C(=O)N[C@H]1CN(C(=O)CC(C)C)CC[C@H]2CC[C@@H](C(=O)NC(c3ccccc3)c3ccccc3)N2C1=O [AT-406] (100 nM)", "target_entity": "HCC1599", "normalised response [%]": 101}
{"compound": "O=[N+]([O-])c1ccc2c(c1)S(=O)(=O)C=C2 [Stattic] (500 nM)", "target_entity": "HCC1599", "normalised response [%]": 95.4}
{"compound": "CC1(COc2ccc3c(c2)ncn3-c2ccc3cccc(N4CCC(N)CC4)c3n2)COC1 [Crenolanib] (1000 nM)", "target_entity": "HCC1599", "normalised response [%]": 94.7}
{"compound": "Cc1cc(Nc2nc(N[C@@H](C)c3ncc(F)cn3)ncc2Cl)[nH]n1 [AZD1480] (100 nM)", "target_entity": "HCC1599", "normalised response [%]": 93.8}

# input Endpoint output: normalised response of CO[C@@]12[C@H](COC(N)=O)C3=C(C(=O)C(C)=C(N)C3=O)N1C[C@@H]1N[C@@H]12 [Mitomycin C] (10000 nM) . Value?
# output 99.1

# input Endpoint output: normalised response of Cc1cc(Nc2nc(N[C@@H](C)c3ncc(F)cn3)ncc2Cl)[nH]n1 [AZD1480] (1000 nM) . Value?
# output 99.3

* * *

Test system: HCC1143
method_notes: normalised response (% of control), CellTiter-Glo; higher = more viable cells (100 = DMSO, 0 = benzethonium chloride kill control)
measurement_conditions: incubation time: 72 h
property_label: normalised response
A complete answer gives the number and then names the unit.

{"compound": "C=CCN(/C=C1/C(=O)O[C@H](COC)[C@@]2(C)C1=C(O)C(=O)C1=C2[C@H](OC(C)=O)C[C@]2(C)C(=O)CC[C@@H]12)CC=C [Sonolisib] (1 nM)", "normalised response": "102%"}
{"compound": "CCn1c(C(=O)N(C2CC2)C2CC2)cc2c3c(ncn3C)c(Nc3cc(C)n(C)n3)nc21 (1 nM)", "normalised response": "100%"}

Turning now to a further record.
# input Endpoint output: normalised response of CC1(COc2ccc3c(c2)ncn3-c2ccc3cccc(N4CCC(N)CC4)c3n2)COC1 [Crenolanib] (1 nM) . Value?
# output 98.5%

* * *

System: MDA-MB-468
method_notes: normalised response (% of control), CellTiter-Glo; higher = more viable cells (100 = DMSO, 0 = benzethonium chloride kill control)
measurement_conditions: incubation time: 72 h
Listed below: normalised response values for each entry.
Express the result in % but write the number alone.

{"molecule": "CCNC(=O)c1noc(-c2cc(C(C)C)c(O)cc2O)c1-c1ccc(CN2CCOCC2)cc1 [NVP-AUY922] (1000 nM)", "target_entity": "MDA-MB-468", "recorded_result": 22.6}
{"molecule": "CCNC(=O)CCC/C=C\\C[C@@H]1[C@@H](/C=C/[C@@H](O)CCc2ccccc2)[C@H](O)C[C@@H]1O [Bimatoprost] (5500 nM)", "target_entity": "MDA-MB-468", "recorded_result": 91.6}
{"molecule": "CC(C)C[C@H](NC(=O)[C@@H](COC(C)(C)C)NC(=O)[C@H](Cc1ccc(O)cc1)NC(=O)[C@H](CO)NC(=O)[C@H](Cc1c[nH]c2ccccc12)NC(=O)[C@H](Cc1cnc[nH]1)NC(=O)[C@@H]1CCC(=O)N1)C(=O)N[C@@H](CCCNC(=N)N)C(=O)N1CCC[C@H]1C(=O)NNC(N)=O [Goserelin] (10000 nM)", "target_entity": "MDA-MB-468", "recorded_result": 93.7}

# input Give normalised response (MDA-MB-468) of the following molecule: CC(C)n1cnc2c(NCCc3ccc(O)cc3)nc(-c3csc4ccccc34)nc21 [StemRegenin 1] (10000 nM)
# output 47.5

* * *

Tested on: CAL-85-1
method_notes: normalised viability (% of control), CellTiter-Blue; higher = more viable cells (about 100 = DMSO control)
measurement_conditions: incubation time: 72 h
property_label: normalised viability (%)
Express the result in % but write the number alone.

Below, 5 molecules whose answers are already recorded.
{"molecule": "CC[C@H](CO)Nc1nc(NCc2ccccc2)c2ncn(C(C)C)c2n1 [Roscovitine] (3000 nM)", "property_label": "normalised viability", "units_symbol": "%", "recorded_result": 82.6}
{"molecule": "CC1(C)CCC(c2ccc(Cl)cc2)=C(CN2CCN(c3ccc(C(=O)NS(=O)(=O)c4ccc(N[C@H](CCN5CCOCC5)CSc5ccccc5)c(S(=O)(=O)C(F)(F)F)c4)cc3)CC2)C1 [Navitoclax] (3000 nM)", "property_label": "normalised viability", "units_symbol": "%", "recorded_result": 87.8}
{"molecule": "CCNC(=O)CCC/C=C\\C[C@@H]1[C@@H](/C=C/[C@@H](O)CCc2ccccc2)[C@H](O)C[C@@H]1O [Bimatoprost] (1650 nM)", "property_label": "normalised viability", "units_symbol": "%", "recorded_result": 102}
{"molecule": "CO[C@@]12[C@H](COC(N)=O)C3=C(C(=O)C(C)=C(N)C3=O)N1C[C@@H]1N[C@@H]12 [Mitomycin C] (3000 nM)", "property_label": "normalised viability", "units_symbol": "%", "recorded_result": 71.6}
{"molecule": "COc1c2occc2cc2ccc(=O)oc12 [Methoxsalen] (3000 nM)", "property_label": "normalised viability", "units_symbol": "%", "recorded_result": 96.2}

# input Endpoint output: normalised viability of C=CCN(/C=C1/C(=O)O[C@H](COC)[C@@]2(C)C1=C(O)C(=O)C1=C2[C@H](OC(C)=O)C[C@]2(C)C(=O)CC[C@@H]12)CC=C [PX-866] (3000 nM) . Value?
# output 102

# input Endpoint output: normalised viability of CC(O)(CS(=O)(=O)c1ccc(F)cc1)C(=O)Nc1ccc(C#N)c(C(F)(F)F)c1 (centres undefined) [Bicalutamide] (3000 nM) . Value?
# output 101

# input Endpoint output: normalised viability of CCNC(=O)c1noc(-c2cc(C(C)C)c(O)cc2O)c1-c1ccc(CN2CCOCC2)cc1 [NVP-AUY922] (300 nM) . Value?
# output 24.6

# input Endpoint output: normalised viability of CO[C@@H]1[C@H](N(C)C(=O)c2ccccc2)C[C@H]2O[C@]1(C)n1c3ccccc3c3c4c(c5c6ccccc6n2c5c31)C(=O)NC4 [Midostaurin] (3000 nM) . Value?
# output 73.4

* * *

Test system: BT-549
method_notes: drug sensitivity score (DSS), CellTox Green (DSS (AUC-based score)); higher = stronger drug effect (viability inhibition or cytotoxicity); extreme values may be limits of the assay
measurement_conditions: incubation time: 72 h
property_label: drug sensitivity score
// print number alone

{"molecule": "C/C(=C\\c1csc(C)n1)[C@@H]1C[C@@H]2O[C@]2(C)CCC[C@H](C)[C@H](O)[C@@H](C)C(=O)C(C)(C)[C@@H](O)CC(=O)N1 [Ixabepilone]", "drug sensitivity score": 5.33}
{"molecule": "CC(C)C[C@H](NC(=O)[C@@H](COC(C)(C)C)NC(=O)[C@H](Cc1ccc(O)cc1)NC(=O)[C@H](CO)NC(=O)[C@H](Cc1c[nH]c2ccccc12)NC(=O)[C@H](Cc1cnc[nH]1)NC(=O)[C@@H]1CCC(=O)N1)C(=O)N[C@@H](CCCNC(=N)N)C(=O)N1CCC[C@H]1C(=O)NNC(N)=O", "drug sensitivity score": 0}
{"molecule": "COc1ccc(S(=O)(=O)Nc2cccnc2Nc2ccc(O)cc2)cc1", "drug sensitivity score": 10.2}
{"molecule": "CC(=O)[C@]1(O)Cc2c(O)c3c(c(O)c2[C@@H](O[C@H]2C[C@H](N)[C@H](O)[C@H](C)O2)C1)C(=O)c1ccccc1C3=O", "drug sensitivity score": 0}

# input Endpoint output: drug sensitivity score of `CC1(C)CCC(c2ccc(Cl)cc2)=C(CN2CCN(c3ccc(C(=O)NS(=O)(=O)c4ccc(N[C@H](CCN5CCOCC5)CSc5ccccc5)c(S(=O)(=O)C(F)(F)F)c4)cc3)CC2)C1` . Value?
# output 0
